These entries and their values trace back to patent US10774121B2.

- target.or.test.system: Gαs (Rattus norvegicus)
- Construct: tissue Applied Cell Science, Rockville, Md; host or cells: rat hippocampal membranes, solubilized in CHAPS buffer
- Sequence (P63095 whole entry): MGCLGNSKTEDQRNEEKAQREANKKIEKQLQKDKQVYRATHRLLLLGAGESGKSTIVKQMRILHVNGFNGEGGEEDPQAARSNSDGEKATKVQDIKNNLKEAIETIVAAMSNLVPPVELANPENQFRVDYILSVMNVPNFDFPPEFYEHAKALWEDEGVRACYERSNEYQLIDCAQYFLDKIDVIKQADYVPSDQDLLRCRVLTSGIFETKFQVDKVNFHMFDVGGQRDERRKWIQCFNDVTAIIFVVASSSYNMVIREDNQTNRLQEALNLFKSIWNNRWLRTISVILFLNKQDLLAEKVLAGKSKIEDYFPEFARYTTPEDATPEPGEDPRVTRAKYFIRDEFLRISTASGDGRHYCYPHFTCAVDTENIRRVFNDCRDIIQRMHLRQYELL
- assay.notes: Stimulation of 35S-GTPγS binding to Gs by PS-1 cytoplasmic peptides in rat hippocampal membrane preparations
- Assay type: biochemical
- measurement.context: peptides 200 μM, rat hippocampal membranes
assay.readout: stimulation of 35S-GTPγS binding to Gs

>  <residue.codes>
KSVSFYTRKDGQLIYT [ic1(1-16), PS-1 cytoplasmic loop 1 peptide]

>  <assay.readout>
stimulation of 35S-GTPγS binding to Gs

>  <measurement>
not

$$$$
>  <residue.codes>
PFTEDTETVGQRALHS [ic1(17-32), PS-1 cytoplasmic loop 1 peptide]

>  <assay.readout>
stimulation of 35S-GTPγS binding to Gs

>  <measurement>
induced stimulation

$$$$
>  <residue.codes>
TDYLVQPFMDQLAFHQFYI [C(21-39), remaining 19 amino acids of the PS-1 cytoplasmic C-terminal tail]

>  <assay.readout>
stimulation of 35S-GTPγS binding to Gs

>  <measurement>
induced stimulation

$$$$
